test: Chemical stability of the compound in methanol; assay type: physicochemical
Endpoint: Stability

Sample Smiles: CN1C[C@@H]2CN(C(=N)c3nc4cc(F)c(F)cc4[nH]3)C[C@@H]2C1
Result: Unstable

Sample Smiles: Cc1c(F)ccc2nc(C(=N)N3C[C@H]4CN(C)C[C@H]4C3)[nH]c12
Result: Unstable

Sample Smiles: CN1C[C@@H]2CN(C(=N)c3nc4ccccc4[nH]3)C[C@@H]2C1
Result: Unstable

Sample Smiles: CN1C[C@@H]2CN(C(=N)c3nc4c(F)c(F)ccc4[nH]3)C[C@@H]2C1
Result: Unstable

Sample Smiles: CN1C[C@@H]2CN(C(=N)c3nc4c(F)c(F)c(F)cc4[nH]3)C[C@@H]2C1
Result: Unstable

Task item: Entry "Clc1ccc2[nH]c(C3=NCCN3)nc2c1" : reported Stability = ?
Reply: Stable

Task item: Entry "CN1C[C@@H]2CN(C(=N)c3nc4cc(F)ccc4[nH]3)C[C@@H]2C1" : reported Stability = ?
Reply: Unstable

Task item: Entry "CN1C[C@@H]2CN(C(=N)c3nc4cc(Cl)ccc4[nH]3)C[C@@H]2C1" : reported Stability = ?
Reply: Unstable

Task item: Entry "CN1C[C@@H]2CN3C(c4nc5cc(F)c(F)cc5[nH]4)=NC[C@H]3[C@@H]2C1" : reported Stability = ?
Reply: Stable

###

The reader will find pKi measurements below, all made with Histamine H3 receptor (Homo sapiens, UniProt Q9Y5N1).
Sequence (Q9Y5N1 whole entry): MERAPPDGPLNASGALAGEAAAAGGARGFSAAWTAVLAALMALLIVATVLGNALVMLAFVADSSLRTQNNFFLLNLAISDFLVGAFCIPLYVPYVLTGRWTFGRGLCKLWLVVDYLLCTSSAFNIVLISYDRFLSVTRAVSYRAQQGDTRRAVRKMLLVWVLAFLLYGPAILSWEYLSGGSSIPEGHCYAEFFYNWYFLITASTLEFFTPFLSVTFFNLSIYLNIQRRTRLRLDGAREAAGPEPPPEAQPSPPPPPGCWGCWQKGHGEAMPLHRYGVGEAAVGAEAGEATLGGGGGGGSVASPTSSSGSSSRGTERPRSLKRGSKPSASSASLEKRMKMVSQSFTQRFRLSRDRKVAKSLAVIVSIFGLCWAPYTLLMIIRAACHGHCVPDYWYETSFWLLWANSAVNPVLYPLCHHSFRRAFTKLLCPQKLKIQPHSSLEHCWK
pKi is defined as minus the log10 of a concentration measured in mol/L.

See these solved cases before continuing.
Sample Smiles: CN1CCN(C(=O)c2nc3cc(Cl)ccc3[nH]2)CC1
Assayed System: Histamine H3 receptor (Homo sapiens, UniProt Q9Y5N1)
pKi: 4.70
//
Sample Smiles: CN1C[C@@H]2CN(C(=O)c3cc4cc(Cl)ccc4[nH]3)C[C@@H]2C1
Assayed System: Histamine H3 receptor (Homo sapiens, UniProt Q9Y5N1)
pKi: 5.06
//
Sample Smiles: CN1C[C@@H]2CN(C(=O)c3nc4cc(F)ccc4[nH]3)C[C@@H]2C1
Assayed System: Histamine H3 receptor (Homo sapiens, UniProt Q9Y5N1)
pKi: 4.81
//
Sample Smiles: CN1CCN(C(=O)c2cn3cc(Cl)ccc3n2)CC1
Assayed System: Histamine H3 receptor (Homo sapiens, UniProt Q9Y5N1)
pKi: 4.54

Then there is this molecule:
Task item: # value lookup — system Histamine H3 receptor (Homo sapiens, UniProt Q9Y5N1), readout pKi, item "CN1CCN(C(=O)c2cc3cccnc3[nH]2)CC1"
Reply: 4.44

###

Listing of recorded microsomal CLint by entry.
test: Metabolic stability in rat liver microsomes; assay type: ADME, Microsome; details: read-out: Stability
Answer as a quantity: numeral, then unit.

See these solved cases before continuing.
Sample Smiles: CN1C[C@@H]2CN(C(=O)c3nc4cc(Cl)ccc4[nH]3)C[C@@H]2C1
Endpoint: microsomal CLint
Result: 36 µL/min/mg
//
Sample Smiles: CN1C[C@@H]2CN(C(=O)c3nc4cc(F)c(F)cc4[nH]3)C[C@@H]2C1
Endpoint: microsomal CLint
Result: 40 µL/min/mg

Then there is this molecule:
Task item: Entry "Cc1c(F)ccc2nc(C(=O)N3C[C@H]4CN(C)C[C@H]4C3)[nH]c12" : reported microsomal CLint = ?
Reply: 214 µL/min/mg

###

target: Histamine H4 receptor (Homo sapiens, UniProt Q9H3N8); test: Antagonist activity at human histamine H4 receptor expressed in HEK293 cells assessed as rev inhibition of forskolin-stimulated cAMP accumulation by CRE-betalactamase reporter gene assay; format: functional, cell-based
Sequence (Q9H3N8 whole entry): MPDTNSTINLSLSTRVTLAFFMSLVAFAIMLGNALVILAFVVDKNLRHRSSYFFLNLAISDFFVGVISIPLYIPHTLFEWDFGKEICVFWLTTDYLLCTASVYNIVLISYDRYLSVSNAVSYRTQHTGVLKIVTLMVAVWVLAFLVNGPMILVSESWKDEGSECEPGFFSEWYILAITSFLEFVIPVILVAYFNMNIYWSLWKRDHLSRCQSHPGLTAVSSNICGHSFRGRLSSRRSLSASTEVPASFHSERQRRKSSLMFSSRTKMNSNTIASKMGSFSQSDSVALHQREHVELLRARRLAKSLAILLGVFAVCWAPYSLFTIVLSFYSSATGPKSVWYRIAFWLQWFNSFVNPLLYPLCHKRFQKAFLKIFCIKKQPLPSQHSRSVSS
Listing of recorded log10 of Ki by entry.
Record value = log10 of Ki given in nM.

Sample Smiles: CN1C[C@@H]2CN(C(=N)c3nc4ccccc4[nH]3)C[C@@H]2C1
Endpoint: log10 of Ki
Quantitative Readout: 1.09

Task item: Entry "CN1C[C@@H]2CN(C(=O)c3nc4cc(F)c(F)cc4[nH]3)C[C@@H]2C1" : reported log10 of Ki = ?
Reply: 2.37

Task item: Entry "CN1C[C@@H]2CN(C(=O)c3nc4ccccc4[nH]3)C[C@@H]2C1" : reported log10 of Ki = ?
Reply: 2.28

Task item: Entry "CC(C)N1C[C@H]2CN(C(=O)c3nc4cc(Cl)ccc4[nH]3)C[C@H]2C1" : reported log10 of Ki = ?
Reply: 3.65

Task item: Entry "O=C(c1nc2cc(Cl)ccc2[nH]1)N1C[C@H]2CNC[C@H]2C1" : reported log10 of Ki = ?
Reply: 3.91

###

target: Histamine H4 receptor (Homo sapiens, UniProt Q9H3N8); assay: Antagonist activity at human histamine H4 receptor expressed in HEK293 cells assessed as rev inhibition of forskolin-stimulated cAMP accumulation by CRE-betalactamase reporter gene assay; assay type: functional, cell-based
pKi: −log10 of the molar value.
Could you label it satisfied if measured pKi is 7 or higher, and not satisfied otherwise?

For orientation, consider the following solved cases.
Sample Smiles: CN1CCN(C(=O)c2cn3cc(Cl)ccc3n2)CC1
Assayed System: Histamine H4 receptor (Homo sapiens, UniProt Q9H3N8)
Qualitative Label: not satisfied
--
Sample Smiles: CN1C[C@@H]2CN(C(=O)c3nc4cc(Cl)ccc4[nH]3)C[C@@H]2C1
Assayed System: Histamine H4 receptor (Homo sapiens, UniProt Q9H3N8)
Qualitative Label: not satisfied
--
Sample Smiles: CN1C[C@@H]2CN(C(=N)c3nc4cc(F)ccc4[nH]3)C[C@@H]2C1
Assayed System: Histamine H4 receptor (Homo sapiens, UniProt Q9H3N8)
Qualitative Label: satisfied
--
Sample Smiles: CN1CCN(C(=O)c2cc3cccnc3[nH]2)CC1
Assayed System: Histamine H4 receptor (Homo sapiens, UniProt Q9H3N8)
Qualitative Label: not satisfied
--
Sample Smiles: Cc1c(F)ccc2nc(C(=N)N3C[C@H]4CN(C)C[C@H]4C3)[nH]c12
Assayed System: Histamine H4 receptor (Homo sapiens, UniProt Q9H3N8)
Qualitative Label: satisfied
--
Sample Smiles: CCN1C[C@@H]2CN(C(=O)c3nc4cc(Cl)ccc4[nH]3)C[C@@H]2C1
Assayed System: Histamine H4 receptor (Homo sapiens, UniProt Q9H3N8)
Qualitative Label: not satisfied

Moving on to the next molecule.
Task item: Evaluate "CN1C[C@@H]2CN(C(=N)c3nc4cc(F)c(F)cc4[nH]3)C[C@@H]2C1" : pKi at minimum 7?
Reply: satisfied

###

assay: Oral bioavailability in rat; format: ADME, organism-based; conditions: in vivo
Endpoint: bioavailability (%)
Write down the numeric answer in % and omit the unit.

Task item: Entry "CN1C[C@@H]2CN(C(=N)c3nc4cc(F)c(F)cc4[nH]3)C[C@@H]2C1" : reported bioavailability = ?
Reply: 20

###

tested on: Rattus norvegicus; assay: Clearance in rat at 1 mg/kg, iv; type: ADME, organism-based; design: dose 1 mg/kg, route intravenous; conditions: in vivo
Listing of recorded clearance by entry.
Write down the numeric answer in mL/min/kg and omit the unit.

Sample Smiles: CN1C[C@@H]2CN(C(=N)c3nc4cc(F)c(F)cc4[nH]3)C[C@@H]2C1
clearance, mL/min/kg: 31

Sample Smiles: CN1C[C@@H]2CN(C(=O)c3nc4cc(F)ccc4[nH]3)C[C@@H]2C1
clearance, mL/min/kg: 161

Then there is this molecule:
Task item: # value lookup — system Rattus norvegicus, readout clearance, item "CN1C[C@@H]2CN(C(=O)c3nc4cc(F)c(F)cc4[nH]3)C[C@@H]2C1"
Reply: 58

###

assay: Half life in rat at 10 mg/kg, sc; format: ADME, organism-based; parameters: dose 10 mg/kg, route subcutaneous; settings: in vivo
Endpoint: half-life (min)
Write down the numeric answer in min and omit the unit.

Task item: Entry "CN1CCN(C(=O)c2nc3cc(Cl)ccc3[nH]2)CC1" : reported half-life = ?
Reply: 42

###

assay: Metabolic stability in human liver microsomes; assay type: ADME, Microsome; settings: read-out: Stability
Endpoint: microsomal CLint

Sample Smiles: CN1C[C@@H]2CN(C(=O)c3cc4cc(Cl)ccc4[nH]3)C[C@@H]2C1
microsomal CLint: < 7 µL/min/mg

Task item: Entry "CN1C[C@@H]2CN(C(=O)c3nc4cc(Cl)ccc4[nH]3)C[C@@H]2C1" : reported microsomal CLint = ?
Reply: < 7 µL/min/mg

Task item: Entry "CN1CCN(C(=O)c2nc3cc(Cl)ccc3[nH]2)CC1" : reported microsomal CLint = ?
Reply: 19 µL/min/mg

Task item: Entry "Cc1c(F)ccc2nc(C(=O)N3C[C@H]4CN(C)C[C@H]4C3)[nH]c12" : reported microsomal CLint = ?
Reply: < 7 µL/min/mg

Task item: Entry "CN1C[C@@H]2CN(C(=O)c3nc4cc(F)ccc4[nH]3)C[C@@H]2C1" : reported microsomal CLint = ?
Reply: < 7 µL/min/mg

Task item: Entry "CN1C[C@@H]2CN(C(=O)c3nc4cc(F)c(F)cc4[nH]3)C[C@@H]2C1" : reported microsomal CLint = ?
Reply: < 7 µL/min/mg

Task item: Entry "CN1C[C@@H]2CN(C(=N)c3nc4cc(F)c(F)cc4[nH]3)C[C@@H]2C1" : reported microsomal CLint = ?
Reply: < 7 µL/min/mg
